Answer each item with its documented inhibition.
- protocolDetails: S. aureus quorum sensing inhibitors, primary screen, RNAIII-GFP reporter, flow cytometry (AID 527);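 also: 0% = AIP-stimulated control and 100% = unstimulated bacteria without AIP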
- experimentalConditions: S. aureus RN6390 RNAIII-GFP reporter, AIP-induced, flow cytometry 3 h; measured here: inhibition of GFP MFI; at 2 µM; stronger effect = higher value
Hit rate of the full screen: of about 24,000 compounds, about 65 (0.3%) were called active. What follows is part of a selection rich in actives, with near analogues and random picks from the rest.

Problem: Consider the compound `O=C(CSc1nnc(-c2c[nH]c3ccccc23)n1-c1ccc(F)cc1)NCc1ccco1` and give its measured inhibition.
Solution: 3.9%

Problem: Consider the compound COc1cc(C(O)c2nc3ccccc3n2C)cc(OC)c1OC (stereo not drawn) and give its measured inhibition.
Solution: -99.6%

Problem: Consider the compound Cc1ccc(S(=O)(=O)N2C3C=CC(C3)C2C(=O)O)cc1 (stereo not drawn) and give its measured inhibition.
Solution: -28.5%

Problem: Consider the compound Cc1c(NC(=O)C(C)OC(=O)c2cc3c4ccccc4n(C)c3s2)c(=O)n(-c2ccccc2)n1C (stereo not drawn) and give its measured inhibition.
Solution: 3.3%

Problem: Consider the compound `COc1c(F)c(F)c(C(=O)O)c(Nc2ccccc2C)c1F` and give its measured inhibition.
Solution: -14%

Problem: Consider the compound `COc1ccc(-n2ncc3c(N4CCCc5ccccc54)ncnc32)cc1` and give its measured inhibition.
Solution: -2.2%

Problem: Consider the compound CC1CCCCN1S(=O)(=O)c1ccc(C(=O)Nc2nnc(-c3cccs3)o2)cc1 (stereo not drawn) and give its measured inhibition.
Solution: 62.3%

Problem: Consider the compound `O=C(O)c1cccc2c1C(=O)N(C1CCCCC1)C2` and give its measured inhibition.
Solution: 21.1%

Problem: Consider the compound `CCCOC(=O)c1cc2ccccc2oc1=O` and give its measured inhibition.
Solution: 8.3%

Problem: Consider the compound `CC(C)OCCCNC(=O)CNC(=O)c1cccs1` and give its measured inhibition.
Solution: -15.3%

Problem: Consider the compound O=C(NCc1ccco1)C1CCCN(S(=O)(=O)c2cnc[nH]2)C1 (stereo not drawn) and give its measured inhibition.
Solution: 9.1%

Problem: Consider the compound `COCCNC(=S)c1ccc(OC)cc1` and give its measured inhibition.
Solution: -6.1%

Problem: Consider the compound `CCOc1cc(/C=N/n2cnnc2)c(Br)cc1O` and give its measured inhibition.
Solution: -8.8%

Problem: Consider the compound `COc1ccc(N2CCN(C(=O)CNC(=O)c3ccc(C(C)(C)C)cc3)CC2)cc1` and give its measured inhibition.
Solution: -22.7%

Problem: Consider the compound `CCCCN(C)C(=O)c1ccc2c(c1)N(CC)C(=O)c1ccccc1S2(=O)=O` and give its measured inhibition.
Solution: -32.6%

Problem: Consider the compound C=CCn1c2ccccc2c2nnc(SC(CC)C(=O)Nc3nc(C)c(C(=O)OCC)s3)nc21 (stereo not drawn) and give its measured inhibition.
Solution: 48.3%

Problem: Consider the compound COc1ccc(C2OC(=O)CC2C(=O)NC(C)C)cc1 (stereo not drawn) and give its measured inhibition.
Solution: -15.8%

Problem: Consider the compound `Cc1ccccc1NC(=O)Cc1nnc(SCC(=O)N2CCN(c3ccccc3)CC2)n1C` and give its measured inhibition.
Solution: 7.2%

Problem: Consider the compound `Cn1c(C(=O)NCCN2CCc3ccccc3C2)cc2c(=O)[nH]c3ccccc3c21` and give its measured inhibition.
Solution: -0.4%

Problem: Consider the compound O=C(Cn1nc(Cc2cccnc2)c2ccccc2c1=O)NCC1COc2ccccc2O1 (stereo not drawn) and give its measured inhibition.
Solution: 12.1%

Problem: Consider the compound `COc1cccc(-c2nnc(NC(=O)c3ccc(S(=O)(=O)N(CC(C)C)CC(C)C)cc3)o2)c1` and give its measured inhibition.
Solution: 15.6%

Problem: Consider the compound `Cc1ccc(NC(=O)CSc2nnc(-c3cnccn3)n2Cc2ccco2)cc1C` and give its measured inhibition.
Solution: -6.3%

Problem: Consider the compound CCS(=O)(=O)N1CCCC(C(=O)NCCCN(C)Cc2ccccc2)C1 (stereo not drawn) and give its measured inhibition.
Solution: -9.5%

Data provenance is PubChem BioAssay AID527.
